ASSAY TARGET: unphosphorylated-BTK kinase domain (UP-BTK), GST-tagged human BTK (389-659aa) (Homo sapiens (Human), UniProt Q06187)
Sequence (Q06187 389-659): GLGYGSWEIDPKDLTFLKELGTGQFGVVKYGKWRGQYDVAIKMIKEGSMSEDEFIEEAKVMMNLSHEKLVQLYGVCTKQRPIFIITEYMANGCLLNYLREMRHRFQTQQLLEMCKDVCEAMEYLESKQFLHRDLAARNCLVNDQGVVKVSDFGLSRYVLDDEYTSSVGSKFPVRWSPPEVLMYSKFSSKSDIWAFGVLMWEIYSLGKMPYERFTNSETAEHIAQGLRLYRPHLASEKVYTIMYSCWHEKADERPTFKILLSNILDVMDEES
PROTOCOL DESCRIPTION: BTK kinase Lanthascreen binding assay
STUDY CONDITIONS: Lanthascreen tracer competition, 60 minutes incubation; pIC50 = negative log of the IC50 in molar
Known BTK_I_binding pIC50 of a selection of molecules
Please state the value as a number alone, without comment.

Worked cases, answers included:
| MOLECULE | BTK_I_binding pIC50 |
| --- | --- |
| Cc1ccc(-c2ccccc2)cc1N1C(=O)Nc2c(C(=O)N[C@@H]3CCCNC3)sc3nccc1c23 | 6.1 |
| C=CC(=O)N1CCC[C@@H](NC(=O)c2sc3nccc4c3c2NC(=O)N4c2ccc(O[C@@H]3CCOC3)cc2C)C1 | 6.6 |
| C=CC(=O)N1CCC[C@@H](NC(=O)c2sc3nccc4c3c2NC(=O)N4c2cnc(OC3CCCC3)cc2C)C1 (single isomer, unassigned) [Example 769] | 6.2 |

Pending molecule:
[Q] Provide BTK_I_binding pIC50 value for the following molecule: Cc1ccccc1N1C(=O)Nc2c(C(=O)NC3CCCN(C(=O)/C(C#N)=C/C4CC4)C3)sc3nccc1c23 (stereo not shown)
[A] 7.0
